Here the recorded normalized growth is given for each entry.
protocol_text: chemical genetic growth profiling, strain panel (AID 1159580);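 further: tested at 20 µM; growth read once vehicle control cultures reached saturation at 30 °C; 1 = growth at the plate median or of vehicle wells; lower values mean less growth of the strain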
particulars: S. cerevisiae deletion strains, growth OD, locus YLR268W, strain sec22, hits give low values
About 2,000 (36%) of roughly 5,500 compounds were called active. Roughly 18% stayed inconclusive and do not appear here. The list shows a part of the results.
Answer with a number only.

CCc1cc(C(N)=S)ccn1 ... 0.977
COc1ccc2ccc(=O)oc2c1 ... 1.02
C[C@@H]([C@H](O)c1ccccc1)N(C)C ... 1.01
CCCCCc1c2c(cc(O)c1C(=O)O)OC(=O)c1c(cc(OC)cc1C(=O)CCCC)O2 ... 0.972

Quick check: normalized growth of CC1(C)C2CC(=O)[C@]3(C)C(CC[C@@]4(C)[C@H](c5ccoc5)OC(=O)[C@H]5O[C@]543)[C@@]2(C)C(=O)C[C@H]1O (some centres undefined) ?
1.02

If you can, please state the reported normalized growth value of CCC1OC(=O)[C@H](C)C(=O)[C@H](C)[C@@H](OC2O[C@H](C)C[C@H](N(C)C)[C@H]2O)[C@](C)(OC)C2(CCCn3cnc(-c4cccnc4)c3)C[C@@H](C)C(=O)[C@H](C)[C@H]3N(C2)C(=O)O[C@]13C (some centres undefined) .
0.98

What does the data say about its normalized growth? Entry: CC1(C)C(=O)C=C[C@@]2(C)C1CC(=O)[C@]1(C)C2CC[C@@]2(C)[C@H](c3ccoc3)OC(=O)[C@H]3O[C@]321 (some centres undefined)
0.982

Data request, read-out normalized growth, for CC(=O)OCC1=C(C(=O)O)N2C(=O)[C@@H](NC(=O)Cc3cccs3)[C@H]2SC1
0.975

Which value of normalized growth has been reported for CCOC(=O)NC1=C(C2CC2)C(=O)C(NC(=O)OCC)=C(C2CC2)C1=O in the records?
1.01

Given CCCCOc1cc(C(=O)NCCN(CC)CC)c2ccccc2n1 , state its recorded normalized growth.
1

Which normalized growth value belongs to CN[C@@H]1C(O)[C@@H](O[C@@H]2[C@@H](O)[C@H](O[C@H]3OC(CN)=CC[C@H]3N)[C@@H](N)C[C@H]2N)OC[C@]1(C)O (some centres undefined) ?
1.01

Look up normalized growth for this compound: CC(C)(O)[C@@H]1Cc2cc3ccc(=O)oc3cc2O1
1.03

Please report the recorded normalized growth for COc1c2ccoc2cc2oc(=O)ccc12 .
0.71

----------
protocol_text: chemical genetic growth profiling, strain panel (AID 1159580)
particulars: S. cerevisiae deletion strains, growth OD, strain wtn01, hits give low values
About 2,000 (36%) of roughly 5,500 compounds were called active. Roughly 18% stayed inconclusive and do not appear here. The list shows a part of the results.
normalized growth for assorted molecules
Answer as a number with no unit attached.

Example entries begin here.
CCOCN(C(=O)CCl)c1c(C)cccc1CC ... 0.967
COc1ccc2c(c1)CCC1C2CCC2(C)C1C[C@@H](O)C2O (some centres not stated) ... 0.978
NS(=O)(=O)c1cc(C2(O)NC(=O)c3ccccc32)ccc1Cl (configuration not stated) ... 1.04
CCCCCc1c2c(cc(O)c1C(=O)O)OC(=O)c1c(cc(OC)cc1C(=O)CCCC)O2 ... 0.96
CCN1C[C@]2(C)CC[C@H](OC)[C@]34C2[C@H](O)[C@]2(OCO[C@@]25C[C@H](OC)[C@H]2C[C@]3(O)C5[C@H]2O)C14 ... 1
CC(=O)O[C@@H]1CC(=O)[C@@]2(C)C(CC(=O)[C@]3(C)C2CC[C@@]2(C)[C@H](c4ccoc4)OC(=O)C4OC423)C1(C)C (some centres not stated) ... 1.01

GET /values?readout=normalized growth&item= CN[C@@H]1C(O)[C@@H](O[C@@H]2[C@@H](O)[C@H](O[C@H]3OC(CN)=CC[C@H]3N)[C@@H](N)C[C@H]2N)OC[C@]1(C)O (some centres not stated)
1.01

----------
protocol_text: chemical genetic growth profiling, strain panel (AID 1159580);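 further: tested at 20 µM; growth read once vehicle control cultures reached saturation at 30 °C; 1 = growth at the plate median or of vehicle wells; lower values mean less growth of the strain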
particulars: S. cerevisiae deletion strains, growth OD, locus YJL187C, strain SWE1 (second series), hits give low values
Among all 5,500 compounds or so, about 2,000 (36%) were called active. Not shown: some 18% with an inconclusive outcome. The list shows a part of the results.
// normalized growth lookup, one value per entry

NC(N)=NC(=O)c1nc(Cl)c(N)nc1N ... 1.01 (inactive)
CCC/C=C1\OC(=O)C2=C1CCC=C2 ... 0.99 (inactive)
CC(=O)O[C@@H]1CC(=O)[C@@]2(C)C(CC(=O)[C@]3(C)C2CC[C@@]2(C)[C@H](c4ccoc4)OC(=O)C4OC423)C1(C)C (stereo partly drawn) ... 0.996 (inactive)
CNC(=O)Oc1cccc2c1OC(C)(C)O2 ... 1.01 (inactive)
NC(=O)NCCCC(N)C(=O)O (stereo not drawn) ... 1.02 (inactive)
CCN(Cc1ccncc1)C(=O)C(CO)c1ccccc1 (stereo not drawn) ... 0.979 (inactive)
Cc1cc(OC(=O)c2c(C)cc(OC(=O)c3c(C)cc(O)cc3O)cc2O)cc(O)c1C(=O)O ... 1.01 (inactive)
CC1=CC(=O)C2=C(C)CC[C@@H]3[C@H](OC(=O)[C@H]3C)[C@@H]12 ... 1.01 (inactive)
COc1ccc2c(c1C(C)C)CCC1C(C)(C)C(=O)CCC21C (stereo not drawn) ... 0.986 (inactive)
CC(C)(O)[C@@H]1Cc2cc3ccc(=O)oc3cc2O1 ... 1.01 (inactive)

Consider the compound CCOC(=O)NC1=C(C2CC2)C(=O)C(NC(=O)OCC)=C(C2CC2)C1=O and give its measured normalized growth.
0.988 (inactive)

Given C[C@@H]([C@H](O)c1ccccc1)N(C)C , state its recorded normalized growth.
0.993 (inactive)

I'd like to know its normalized growth. The compound in question is Cc1cc(OC(=O)c2c(C)cc(O)cc2O)cc(O)c1C(=O)O
0.993 (inactive)

Can you look up the measured normalized growth of COC(=O)c1c(C)cc(OC)cc1O for me?
0.998 (inactive)

Data request, read-out normalized growth, for O=c1cc(-c2ccc(O)cc2)oc2cc(O[C@@H]3O[C@H](CO)[C@@H](O)[C@H](O)[C@H]3O)cc(O)c12
0.998 (inactive)

----------
protocol_text: chemical genetic growth profiling, strain panel (AID 1159580);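 further: tested at 20 µM; growth read once vehicle control cultures reached saturation at 30 °C; 1 = growth at the plate median or of vehicle wells; lower values mean less growth of the strain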
particulars: S. cerevisiae deletion strains, growth OD, locus YHR094C, strain hxt1, hits give low values
The whole screen tested about 5,500 compounds, of which about 2,000 (36%) were called active. Not shown: some 18% with an inconclusive outcome. The list shows a part of the results.
experimental_endpoint: normalized growth
# output: bare number, no unit

NC(CSCSCC(N)C(=O)O)C(=O)O (stereo not drawn) ... 0.985
CCC(c1ccc(O)cc1)C(CC)c1ccc(O)cc1 (stereo not drawn) ... 0.999
COc1ccc2c3c1OC1C(O)CC=C4C(C2)N(C)CCC431 (stereo not drawn) ... 1.01
COc1ccc(-c2oc3c(CC=C(C)C)c(O[C@@H]4O[C@H](CO)[C@@H](O)[C@H](O)[C@H]4O)cc(O)c3c(=O)c2O[C@@H]2O[C@@H](C)[C@H](O)[C@@H](O)[C@H]2O)cc1 ... 0.988
COc1ccccc1/C=C\C(=O)O ... 0.998
CCCCOc1cc(C(=O)NCCN(CC)CC)c2ccccc2n1 ... 0.991
CCN(Cc1ccncc1)C(=O)C(CO)c1ccccc1 (stereo not drawn) ... 0.977
Cc1ccccc1OCC(O)CO (stereo not drawn) ... 0.986

For the compound shown here, COc1ccc(Cl)cc1C(=O)NCCc1ccc(S(=O)(=O)NC(=O)NC2CCCCC2)cc1 , give the reported normalized growth.
0.996

Reported normalized growth for C[C@@H]([C@H](O)c1ccccc1)N(C)C : what is it?
1.01

What measured normalized growth goes with CC12CCC3c4ccc(OC(=O)c5ccccc5)cc4CCC3C1CCC2O (stereo not drawn) ?
0.995

May I ask what normalized growth has been recorded for CCCCCCC(C)OC(=O)COc1ccc(Cl)cc1Cl (stereo not drawn) ?
0.998

Would you kindly share the measured normalized growth for C[C@]12CCC3c4ccc(O)cc4CCC3C1CC[C@@H]2O (stereo partly drawn) ?
1.01

Looking for the measured normalized growth of O=C(Cc1cccs1)NC1C(=O)N2C(C(=O)[O-])=C(C[n+]3ccccc3)CSC12 (stereo not drawn) , can you help?
0.998

# input compound: C=C[C@H]1CN2CC[C@H]1C[C@@H]2[C@@H](OC(=O)OCC)c1ccnc2ccc(OC)cc12 ; wanted: its normalized growth
1.02

----------
protocol_text: chemical genetic growth profiling, strain panel (AID 1159580);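 further: tested at 20 µM; growth read once vehicle control cultures reached saturation at 30 °C; 1 = growth at the plate median or of vehicle wells; lower values mean less growth of the strain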
particulars: S. cerevisiae deletion strains, growth OD, locus YGL227W, strain vid30, hits give low values
The campaign covered roughly 5,500 compounds. About 2,000 (36%) were called active. About 18% were inconclusive and are not listed. Some of the results follow.
experimental_endpoint: normalized growth

CC1(C)C(=O)C=C[C@@]2(C)C1CC(=O)[C@]1(C)C2CC[C@@]2(C)[C@H](c3ccoc3)OC(=O)[C@H]3O[C@]321 (stereo not given in full) ... 0.994 (inactive)

Entry CC1(C)C(=O)C=C[C@@]2(C)C1C[C@@H](O)[C@]1(C)C2CC[C@@]2(C)[C@H](c3ccoc3)OC(=O)[C@H]3O[C@]321 (stereo not given in full) : reported normalized growth = ?
1.01 (inactive)

Name the reported normalized growth value associated with the compound CC1(C)C=CC(=O)[C@@]2(C)C1CC(=O)[C@]1(C)C2CC[C@@]2(C)[C@H](c3ccoc3)OC(=O)C3OC321 (stereo not given in full)
0.994 (inactive)

Consider the compound OC1CC2CCCC(C1)N2Cc1ccccc1 (stereo not given) and give its measured normalized growth.
0.986 (inactive)

Which normalized growth is listed for CC(=O)Oc1ccc2c(c1C(C)C)CCC1C(C)(C)CCC[C@]21C (stereo not given in full) ?
1.02 (inactive)
